target: control brain homogenates; assay: [14C]CG binding to control brain homogenates; set-up: species or system human; details: read-out: KD, typical control brain sample (FIG. 4B)
measuredAttribute: pKd
pKd is defined as minus the log10 of a concentration measured in mol/L.

# lookup: pKd of `O=C(O)c1cc(N=Nc2ccc(-c3ccc(N=Nc4ccc(O)c(C(=O)O)c4)cc3)cc2)ccc1O` 6.32

###

biological target: Aβ (10-43) (Homo sapiens, UniProt P05067)
Sequence (P05067 681-714): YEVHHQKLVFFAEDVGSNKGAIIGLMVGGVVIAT
measuredAttribute: Kd (nM)
Supply the numeric figure in nM, leaving out any unit text.

Which Kd value is on record for `O=C(O)c1cc(N=Nc2ccc(-c3ccc(N=Nc4ccc(O)c(C(=O)O)c4)cc3)cc2)ccc1O` ? 340

###

assay: in vivo; settings: mouse
measuredAttribute: LD50 at 72 h

LD50 at 72 h for `O=C(O)c1cc(N=Nc2ccc(-c3ccc(N=Nc4ccc(O)c(C(=O)O)c4)cc3)cc2)ccc1O` ? > 100 mg/kg

###

target: control brain homogenates; assay: [14C]CG binding to control brain homogenates; parameters: species or system human; settings: Control (n = 6); read-out: KD
measuredAttribute: pKd
Please report pKd as the negative decimal logarithm of the molar concentration, giving only the number.

I have this compound here, O=C(O)c1cc(N=Nc2ccc(-c3ccc(N=Nc4ccc(O)c(C(=O)O)c4)cc3)cc2)ccc1O [Chrysamine G] , and I need its recorded pKd. 6.33

###

target: synthetic peptide, Aβ (10-43) (Homo sapiens); construct: The 10-43 amino acid fragment of Aβ was synthesized; made in house; host or cells: chemical (FMOC) peptide synthesis, no expression host; test: Inhibition of [14C]Chrysamine G binding to Aβ (10-43); settings: read-out: Ki for inhibition of [14C]Chrysamine G binding to Aβ (10-43)
Sequence (P05067 681-714): as above
measuredAttribute: Ki (µM)
Use µM as the unit, but write only the number.

So what does the record say about Ki for `O=C(O)c1cc(N=Nc2ccccc2)ccc1O` ? 73

// data source = patent US6417178B1
